Value source: ChEMBL document CHEMBL4706618

Experiment: GSH reactivity in pH 7.4 sodium phosphate deuterium oxide buffer assessed as half life in presence of glutathione measured up to 6 hrs by 1H NMR analysis
Format: ADME
Conditions: sodium phosphate deuterium oxide buffer with glutathione
Readout kind: half-life
Quick note: unit goes after the number.

(Q) Give its half-life value. Item: `C=C1C(=O)C=C[C@]2(C)[C@@H]1CC[C@@]13C/C(=N\OC)[C@@](C)(CC[C@H]12)C3`
(A) 30 min
